Each entry below carries its recorded AC50.
Tgt: D(1A) dopamine receptor (Homo sapiens, UniProt P21728)
Sequence (P21728 whole entry): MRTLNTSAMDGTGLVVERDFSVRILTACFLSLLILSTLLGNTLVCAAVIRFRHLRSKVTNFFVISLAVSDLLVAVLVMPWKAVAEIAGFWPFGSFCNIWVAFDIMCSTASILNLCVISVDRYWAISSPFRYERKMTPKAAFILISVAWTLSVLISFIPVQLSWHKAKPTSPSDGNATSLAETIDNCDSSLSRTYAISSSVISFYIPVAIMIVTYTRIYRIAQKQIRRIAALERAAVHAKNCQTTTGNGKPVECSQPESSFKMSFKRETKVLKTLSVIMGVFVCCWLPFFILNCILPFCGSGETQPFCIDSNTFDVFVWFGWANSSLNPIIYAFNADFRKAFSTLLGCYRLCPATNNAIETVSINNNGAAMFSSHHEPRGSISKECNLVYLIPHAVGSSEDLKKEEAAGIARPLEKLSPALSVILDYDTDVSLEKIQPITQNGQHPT
Type: functional, cell-based

Compound: CC(C)[N+](C)(CCC(C(N)=O)(c1ccccc1)c1ccccc1)C(C)C [ISOPROPAMIDE]
AC50: > 10 µM
//
Compound: COCC1=C(C(=O)OC(C)OC(=O)OC(C)C)N2C(=O)[C@@H](NC(=O)/C(=N\OC)c3csc(N)n3)[C@H]2SC1 (stereo partly drawn)
AC50: > 30 µM
//
Compound: CCC1(C2=CCCCCC2)C(=O)NC(=O)NC1=O
AC50: > 10 µM
//
Compound: CC(C)(N)Cc1ccc(Cl)cc1
AC50: > 10 µM
//
Compound: CN1C(=O)CC(c2ccccc2)C1=O (stereo not drawn) [PHENSUXIMIDE]
AC50: > 10 µM
//
Compound: C#CC1(OC(N)=O)CCCCC1 [ETHINAMATE]
AC50: > 10 µM
//
Compound: CCCCC(C)(O)C/C=C/[C@H]1[C@H](O)CC(=O)[C@@H]1CCCCCCC(=O)OC (stereo partly drawn)
AC50: > 30 µM
//
Compound: CCC[C@@H]1C[C@@H](C(=O)N[C@@H]([C@H]2O[C@H](SC)[C@H](O)[C@@H](O)[C@H]2O)[C@H](C)Cl)N(C)C1
AC50: > 10 µM
//
Compound: CCCS(=O)(=O)Nc1ccc(F)c(C(=O)c2c[nH]c3ncc(-c4ccc(Cl)cc4)cc23)c1F
AC50: > 30 µM
//
Compound: CC[C@]1(O)C[C@@H]2CN(CCc3c([nH]c4ccccc34)[C@@](C(=O)OC)(c3cc4c(cc3OC)N(C)[C@H]3[C@@](O)(C(N)=O)[C@H](O)[C@]5(CC)C=CCN6CC[C@]43[C@@H]65)C2)C1
AC50: > 30 µM
//
Compound: CN(CCCN1c2ccccc2CCc2ccccc21)CC(=O)c1ccc(Cl)cc1
AC50: > 30 µM
//
Compound: CC(=O)c1ccc2c(c1)N(CCCN1CCN(CCO)CC1)c1ccccc1S2
AC50: > 30 µM
//
Compound: NC[C@H]1O[C@H](O[C@H]2[C@H](O)[C@@H](O[C@H]3O[C@H](CO)[C@@H](O)[C@H](N)[C@H]3O)[C@H](N)C[C@@H]2N)[C@H](O)[C@@H](O)[C@@H]1O
AC50: > 30 µM
//
Compound: CCCCCCCCCCCC[N+](C)(C)CCOc1ccccc1
AC50: > 30 µM
//
Compound: CC(C(=O)O)c1ccc(C(=O)c2cccs2)cc1 (stereo not drawn)
AC50: > 10 µM
//
Compound: CCC(C(=O)O)c1ccc(CC(C)C)cc1 (stereo not drawn)
AC50: > 30 µM
//
Compound: Cc1cccc(C)c1NC(=O)C1CCCCN1C (stereo not drawn) [MEPIVACAINE]
AC50: > 30 µM
//
Compound: C#C[C@]1(O)CC[C@H]2[C@@H]3CCc4cc(O)ccc4[C@H]3CC[C@@]21C
AC50: > 10 µM
//
Compound: CCCC(=O)N1CCCN(c2nc(N)c3cc(OC)c(OC)cc3n2)CC1
AC50: > 30 µM
//
Compound: CCOC(=O)[C@H](CCc1ccccc1)N[C@H]1CCCN2CCC[C@@H](C(=O)O)N2C1=O
AC50: > 30 µM
//
Compound: CCCCCCC(C)(C)c1cc(O)c2c(c1)OC(C)(C)C1CCC(=O)CC21 (stereo not drawn)
AC50: > 30 µM
//
Compound: O=C(OCCN1CCOCC1)c1cccnc1Nc1cccc(C(F)(F)F)c1 [MORNIFLUMATE]
AC50: > 30 µM
//
Compound: COC(=O)C1=C(C)NC(C)=C(C(=O)OCC(C)C)C1c1ccccc1[N+](=O)[O-] (stereo not drawn)
AC50: > 30 µM
//
Compound: COC(=O)N[C@H](C(=O)N[C@@H](Cc1ccccc1)[C@@H](O)CN(Cc1ccc(-c2ccccn2)cc1)NC(=O)[C@@H](NC(=O)OC)C(C)(C)C)C(C)(C)C
AC50: > 10 µM
//
Compound: C[C@H]1C[C@@H]2[C@H]([C@@H](O)C[C@@]3(C)[C@H]2CC[C@]3(O)C(=O)COC(=O)CCC(=O)O)[C@@]2(C)C=CC(=O)C=C12 [METHYLPREDNISOLONE HEMISUCCINATE]
AC50: > 30 µM
//
Compound: C=C1CC[C@@]2(O)[C@H]3Cc4ccc(O)c5c4[C@@]2(CCN3CC2CC2)[C@H]1O5
AC50: > 30 µM
//
Compound: CNC(=O)c1cc(Oc2ccc(NC(=O)Nc3ccc(Cl)c(C(F)(F)F)c3)cc2)ccn1
AC50: > 30 µM
//
Compound: Nc1nc(N)c2nc(-c3ccccc3)c(N)nc2n1
AC50: > 30 µM

* * *

Tgt: Histamine H3 receptor (Homo sapiens, UniProt Q9Y5N1)
Sequence (Q9Y5N1 whole entry): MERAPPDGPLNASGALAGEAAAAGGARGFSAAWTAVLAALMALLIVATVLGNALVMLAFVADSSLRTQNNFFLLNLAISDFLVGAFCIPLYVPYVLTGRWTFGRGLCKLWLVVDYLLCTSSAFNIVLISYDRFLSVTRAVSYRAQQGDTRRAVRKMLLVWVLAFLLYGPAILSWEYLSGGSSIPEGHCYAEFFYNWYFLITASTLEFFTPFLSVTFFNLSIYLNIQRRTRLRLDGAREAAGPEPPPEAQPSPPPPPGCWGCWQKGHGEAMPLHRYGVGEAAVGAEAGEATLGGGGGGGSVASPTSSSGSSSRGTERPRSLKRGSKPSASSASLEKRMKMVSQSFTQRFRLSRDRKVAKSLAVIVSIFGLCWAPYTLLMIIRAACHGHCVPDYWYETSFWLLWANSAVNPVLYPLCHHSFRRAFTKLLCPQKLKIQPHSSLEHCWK

Molecule: CC(=O)N(CC(O)CO)c1c(I)c(C(=O)NCC(O)CO)c(I)c(C(=O)NCC(O)CO)c1I (stereo not drawn) [IOHEXOL]
AC50: > 10 µM
--
Molecule: Nc1ncnc2c1ncn2[C@@H]1O[C@H](COP(=O)(O)O)[C@@H](O)[C@H]1O [ADENOSINE PHOSPHATE]
AC50: > 30 µM
--
Molecule: CN(CCOc1ccc(NS(C)(=O)=O)cc1)CCc1ccc(NS(C)(=O)=O)cc1 [DOFETILIDE]
AC50: > 10 µM
--
Molecule: CN[C@@H]1[C@H](O)[C@H](NC)[C@H]2O[C@@]3(O)C(=O)C[C@@H](C)O[C@H]3O[C@@H]2[C@H]1O
AC50: > 10 µM
--
Molecule: CCOc1cc(N)c([N+](=O)[O-])cc1C(=O)NC1CCN(CC2CC=CCC2)CC1 (stereo not drawn) [CINITAPRIDE]
AC50: 5.9 µM
--
Molecule: OCc1cc([C@@H](O)CNCCCCCCOCCOCc2c(Cl)cccc2Cl)ccc1O
AC50: > 30 µM
--
Molecule: O=C1CN=C(c2ccccc2)c2cc(Cl)ccc2N1CC(F)(F)F
AC50: > 30 µM
--
Molecule: CN(C)C(=O)OC1N=C(c2ccccc2)c2cc(Cl)ccc2N(C)C1=O (stereo not drawn)
AC50: > 10 µM
--
Molecule: Nc1nc2ccc(OC(F)(F)F)cc2s1
AC50: > 30 µM
--
Molecule: C#C[C@]1(O)CC[C@H]2[C@@H]3CCc4cc(O)ccc4[C@H]3CC[C@@]21C
AC50: > 10 µM
--
Molecule: Cc1ccc(-c2nc3ccc(C)cn3c2CC(=O)N(C)C)cc1
AC50: > 30 µM
--
Molecule: CCCCN1CCCCC1C(=O)Nc1c(C)cccc1C (stereo not drawn)
AC50: > 30 µM
--
Molecule: NS(=O)(=O)c1cc(-c2nnn[nH]2)c(NCc2cccs2)cc1Cl [AZOSEMIDE]
AC50: > 30 µM
--
Molecule: C#C[C@]1(O)CC[C@H]2[C@@H]3CCC4=CCCC[C@@H]4[C@H]3CC[C@@]21C
AC50: > 30 µM
--
Molecule: O=C1CCC(N2C(=O)c3ccccc3C2=O)C(=O)N1 (stereo not drawn) [THALIDOMIDE]
AC50: > 10 µM
--
Molecule: Oc1ncnc2[nH]ncc12
AC50: > 30 µM
--
Molecule: CNC(=O)c1cc(Oc2ccc(NC(=O)Nc3ccc(Cl)c(C(F)(F)F)c3)cc2)ccn1
AC50: > 30 µM
--
Molecule: C[C@]12CCC(=O)C=C1CC[C@@H]1[C@@H]2CC[C@@]2(C)[C@H]1CC[C@]2(C)O
AC50: > 30 µM

* * *

Tgt: Prostaglandin G/H synthase 1 (Homo sapiens, UniProt P23219)
Sequence (P23219 whole entry): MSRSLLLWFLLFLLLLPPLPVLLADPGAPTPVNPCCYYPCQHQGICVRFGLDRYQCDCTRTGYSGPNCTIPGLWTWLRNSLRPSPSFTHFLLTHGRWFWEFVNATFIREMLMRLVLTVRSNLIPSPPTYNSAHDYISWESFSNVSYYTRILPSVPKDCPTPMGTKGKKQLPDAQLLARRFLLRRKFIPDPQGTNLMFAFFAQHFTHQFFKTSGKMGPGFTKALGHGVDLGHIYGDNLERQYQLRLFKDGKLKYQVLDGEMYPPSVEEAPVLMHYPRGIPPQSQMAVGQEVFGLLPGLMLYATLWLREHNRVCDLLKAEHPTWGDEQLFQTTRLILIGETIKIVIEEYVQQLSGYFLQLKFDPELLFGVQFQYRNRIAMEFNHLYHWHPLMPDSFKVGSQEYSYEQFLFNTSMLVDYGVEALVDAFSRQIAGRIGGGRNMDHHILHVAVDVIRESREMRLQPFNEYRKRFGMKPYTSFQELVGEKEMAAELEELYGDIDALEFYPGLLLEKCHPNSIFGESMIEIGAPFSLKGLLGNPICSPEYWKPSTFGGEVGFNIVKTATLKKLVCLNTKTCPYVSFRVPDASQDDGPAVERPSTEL
Assay type: functional

Molecule: Nc1ccc(/N=N/c2ccccc2)c(N)n1 [PHENAZOPYRIDINE]
AC50: > 30 µM
//
Molecule: Sc1ncnc2nc[nH]c12 [MERCAPTOPURINE ANHYDROUS]
AC50: 14.6 µM
//
Molecule: C[N+](C)(C)CCCCCCCCCC[N+](C)(C)C [DECAMETHONIUM]
AC50: > 30 µM
//
Molecule: Nc1nc2c(ncn2CCC(CO)CO)c(=O)[nH]1 [PENCICLOVIR]
AC50: > 30 µM
//
Molecule: CCC1C(C)=NN=C(c2ccc(OC)c(OC)c2)c2cc(OC)c(OC)cc21 (stereo not given) [TOFISOPAM]
AC50: > 30 µM
//
Molecule: COc1ccc2c(c1)OC(C)(C)C(c1ccccc1)C2c1ccc(OCCN2CCCC2)cc1 (stereo not given) [ORMELOXIFENE]
AC50: 3.31 µM
//
Molecule: Nc1nc(-n2cc(C(=O)O)c(=O)c3cc(F)c(N4CC(O)C4)c(Cl)c32)c(F)cc1F [DELAFLOXACIN]
AC50: > 30 µM
//
Molecule: Nc1nc(N)c2nc(-c3ccccc3)c(N)nc2n1
AC50: > 30 µM
//
Molecule: Cc1cc2c(cc1CC(=O)c1sccc1S(=O)(=O)Nc1onc(C)c1Cl)OCO2 [SITAXENTAN]
AC50: > 30 µM
//
Molecule: COc1cc(NCc2ccc3nc(N)nc(N)c3c2C)cc(OC)c1OC [TRIMETREXATE]
AC50: 28.1 µM

These data points were gathered from ChEMBL document CHEMBL5291721.
